Tested on: methicillin resistant S. aureus Mu50 strain (S. aureus ATCC700699) biofilm
Test: Biofilm susceptibility to vancomycin, combination treatment regimen (mature biofilm treated with compound plus vancomycin)
Type: cell-based
Settings: compound 100 μM together with VAN 20 μg/ml on mature biofilm; compared to the untreated (negative) control
Quantity: Combin. (100 μM): percentage Colony Forming Units (CFU's) per biofilm (percentage)
Give bare numbers, in percentage.

Some molecules with recorded Combin. (100 μM): percentage Colony Forming Units (CFU's) per biofilm:
INSERT INTO assay_data (molecule, recorded_measurement) VALUES
  ('O=C(NC[C@]1(O)CO[C@H](CNS(=O)(=O)c2ccc(Cl)cc2)[C@H]1O)c1ccccc1', 14.85),
  ('O=C(NC[C@]1(O)CO[C@H](Cn2nncc2-c2ccccc2)[C@H]1O)c1ccccc1', 73.90),
  ('O=C(NC[C@]1(O)CO[C@H](CNC(=O)c2ccccc2Br)[C@H]1O)c1ccccc1', 17.51),
  ('Cc1ccc(C(=O)NC[C@H]2OC[C@@](O)(CNC(=O)c3ccccc3)[C@@H]2O)cc1', 24.59),
  ('CN(C)c1cccc(C(=O)NC[C@H]2OC[C@@](O)(CNC(=O)c3ccccc3)[C@@H]2O)c1', 26.43),
  ('O=C(NC[C@]1(O)CO[C@H](CNS(=O)(=O)c2ccccc2-c2ccccc2)[C@H]1O)c1ccccc1', 29.85),
  ('O=C(NC[C@H]1OC[C@@](O)(CNC(=O)c2ccccc2Cl)[C@@H]1O)c1ccnnc1', 37.03),
  ('O=C(NC[C@]1(O)CO[C@H](CNC(=O)c2ccccc2I)[C@H]1O)c1ccccc1', 16.46),
  ('O=C(NC[C@]1(O)CO[C@H](CNC(=O)c2ccncc2Cl)[C@H]1O)c1ccccc1', 48.93),
  ('O=C(NC[C@H]1OC(O)[C@@](O)(CNC(=O)c2cc(O)c(O)c(O)c2)[C@@H]1O)c1cc(O)c(O)c(O)c1 (stereo partly drawn)', 57.74);

Would you mind listing Combin. (100 μM): percentage Colony Forming Units (CFU's) per biofilm for each of the following molecules?
1. O=C(NC[C@H]1OC[C@@](O)(CNC(=O)c2ccccc2)[C@@H]1O)c1cncnc1
2. O=C(NC[C@H]1OC(O)[C@@](O)(CNC(=O)c2cc(O)cc(O)c2)[C@@H]1O)c1cc(O)cc(O)c1 (stereo partly drawn)
3. O=C(NC[C@H]1OC[C@@](O)(CNC(=O)c2ccccc2)[C@@H]1O)c1ccccc1
4. O=C(NC[C@H]1OC[C@@](O)(CNC(=O)c2ccnnc2)[C@@H]1O)c1ccc(-c2ccccc2)cc1
5. CN(C)c1ccccc1C(=O)NC[C@H]1OC[C@@](O)(CNC(=O)c2ccccc2)[C@@H]1O

16.51
79.55
34.64
29.97
11.11

The origin of these recorded values is patent US10023602B2.
